The reported measurements were obtained from ChEMBL document CHEMBL1777692.

target: UniProt O35956; experiment: Inhibition of rat Oat1 expressed in Xenopus oocytes; assay type: cell-based, Oocyte
Sequence (O35956 whole entry): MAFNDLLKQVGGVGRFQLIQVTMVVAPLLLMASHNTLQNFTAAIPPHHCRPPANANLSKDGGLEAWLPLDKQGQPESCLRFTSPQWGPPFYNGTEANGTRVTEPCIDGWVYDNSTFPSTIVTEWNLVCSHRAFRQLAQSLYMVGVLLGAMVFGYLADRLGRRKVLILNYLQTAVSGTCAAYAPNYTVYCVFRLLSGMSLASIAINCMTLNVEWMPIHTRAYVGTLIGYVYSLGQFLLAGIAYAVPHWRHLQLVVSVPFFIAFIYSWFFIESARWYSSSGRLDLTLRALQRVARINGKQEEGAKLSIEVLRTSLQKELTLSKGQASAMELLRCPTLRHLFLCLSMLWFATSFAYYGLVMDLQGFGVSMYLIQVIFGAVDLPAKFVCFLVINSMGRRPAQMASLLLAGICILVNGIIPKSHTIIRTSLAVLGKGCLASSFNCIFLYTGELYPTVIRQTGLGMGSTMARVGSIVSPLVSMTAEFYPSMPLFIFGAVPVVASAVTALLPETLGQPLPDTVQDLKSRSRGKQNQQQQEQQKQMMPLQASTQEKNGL
measured_metric: Ki (µM)
One number for each entry, in µM.

Request: Ki for CCSC[C@H](NC(C)=O)C(=O)O ?
Response: 1100
